- System: Bulrush (Scirpus juncoides)
- test-name: Submerged Soil Treatment Test (Growth Stage Treatment)
- Assay type: in vivo
- condition-label: 30 g ai/a, growth stage treatment (barnyardgrass two-leaf stage), granule, observed 30 days later
# maps each entry to its Herbicidal effects Bulrush (Scirpus juncoides)
value-kind: Herbicidal effects Bulrush (Scirpus juncoides)

COc1cc(OC)nc(Oc2cccnc2C2OCCO2)n1 | 5 (0-5 (Death))
COc1cc(OC)nc(Oc2cccnc2C(OC)OC)n1 | 4 (6-10 (Severe damages))
COc1cc(OC)nc(Oc2cccnc2C2OCC(C)O2)n1 (stereo not shown) | 4 (6-10 (Severe damages))
CCCCOC(OCCCC)c1ncccc1Oc1nc(OC)cc(OC)n1 | 4 (6-10 (Severe damages))
COc1cc(OC)nc(Oc2cccnc2C=O)n1 | 5 (0-5 (Death))
CCOC(=O)c1ncccc1Oc1nc(OC)cc(OC)n1 [A, reference compound] | 4 (6-10 (Severe damages))
COc1cc(OC)nc(Oc2cccnc2C2OCCCO2)n1 | 2 (41-70 (Small damages))
CCOC(OCC)c1ncccc1Oc1nc(OC)cc(OC)n1 | 5 (0-5 (Death))
COc1cc(OC)nc(Oc2cccnc2C(OC)OC(C)C)n1 (stereo not shown) | 5 (0-5 (Death))
COc1cc(OC)nc(Oc2ccccc2C=O)n1 [B, reference compound] | 5 (0-5 (Death))
